- System: HEK-293T
- METHOD: Multiplex assay against HEK293T
- Format: toxicity, cell-based
- CONDITION_DETAILS: human, 24 h, 10 µM, compound concentration 10 uM, replicate 2
Record form. Attribute: Population Apoptotic (%). Fill in for each entry.
Give bare numbers, in %.

// for each compound in input: emit Population Apoptotic (%)
1. Cc1ccc(C(C)(O)c2nc3ccccc3s2)c(C)c1 (stereo not given)
2. Cl.Clc1ccc2nsnc2c1NC1=NCCN1 [TIZANIDINE HYDROCHLORIDE]
3. O=S(=O)(c1ccccc1)c1cnc2c(N3CCNCC3)cccc2c1 [INTEPIRDINE]
4. CSc1ccccc1N1CCN(CCCCCC(=O)NC2CCCc3ccccc32)CC1.Cl (stereo not given)
5. CCCn1c(=O)c2[nH]c(C3CCCC3)nc2n(CCC)c1=O

// result
[36, 29, 51, 69, 41]

----------
- Test system: U2OS
- METHOD: Multiplex assay against U2OS
- Assay type: toxicity, cell-based
- CONDITION_DETAILS: human, 24 h, 1 µM, compound concentration 1 uM, replicate 1
Entries whose Population Fragmented Nuclei (%) is below 20% take satisfied; entries at or above 20% take not satisfied.

# example entries with known answers
>>> discrete_label("CN(C)c1ccnc2sc3c(=O)n(N4CCCCCC4)cnc3c12")
"satisfied"
>>> discrete_label("O=C1COc2nccc(-c3ccccc3F)c2CN1Cc1cc(C(F)(F)F)cc(C(F)(F)F)c1")
"satisfied"

// query Please let me know if "COc1cc(NC(=O)CCN2CCC(OC(=O)Nc3ccccc3-c3ccccc3)CC2)c(Cl)cc1CNC[C@H](O)c1ccc(O)c2[nH]c(=O)ccc12" shows Population Fragmented Nuclei (%) below 20%.
// result not satisfied

// query Does "COc1cc(C(=O)N(CCCc2ccccc2)Cc2ccc(CC(=O)O)cc2)cc(OC)c1C" have Population Fragmented Nuclei (%) strictly under 20%?
// result not satisfied

// query Is 20% strictly greater than the compound's reported Population Fragmented Nuclei (%)? compound: "O=C(NCCO)c1cccc(-c2cc(Nc3ccc(OC(F)(F)F)cc3)ncn2)c1"
// result satisfied

// query Hi there! Is Population Fragmented Nuclei (%) for CCCN1CCC[C@@H]2Cc3n[nH]cc3C[C@H]21.Cl [QUINPIROLE HYDROCHLORIDE] below 20%, do you know?
// result not satisfied

----------
- Tested on: U2OS
- METHOD: Multiplex assay against U2OS
- Assay type: toxicity, cell-based
- CONDITION_DETAILS: human, 48 h, 1 µM, compound concentration 1 uM, replicate 2
EXPERIMENTAL_ENDPOINT: Population Apoptotic (%)
One number for each entry, in %.

>>> recorded_value("O=C(NCC(=O)N1CC[C@H](N[C@H]2CC[C@@](O)(c3ccc(-c4ncccn4)cn3)CC2)C1)c1cccc(C(F)(F)F)c1")
96

Each molecule below has a reported value. Please supply its Population Apoptotic (%).
1. CCNC1(C(N)=O)CCN(c2ncnc3c2nc(-c2ccccc2Cl)n3-c2ccc(Cl)cc2)CC1
2. Cc1ccc(C(C)(O)c2nc3ccccc3s2)c(C)c1 (centres undefined)
3. Oc1c(CN2CCN(c3ccccn3)CC2)cc(Cl)c2cccnc12

// result
1. 52
2. 94
3. 87

----------
- Tested on: U2OS
- METHOD: Multiplex assay against U2OS
- Type: toxicity, cell-based
- CONDITION_DETAILS: human, 48 h, 1 µM, compound concentration 1 uM, replicate 1
Population Pyknosed Nuclei (%) strictly under 7% means Condition met; at 7% or over means Condition not met.

Example entries begin here.
>>> discrete_label("CC[C@H]1OC(=O)[C@H](C)[C@@H](O[C@H]2C[C@@](C)(OC)[C@@H](O)[C@H](C)O2)[C@H](C)[C@@H](O[C@@H]2O[C@H](C)C[C@H](N(C)C)[C@H]2O)[C@@]2(C)CC(C)=C(O2)[C@H](C)[C@@H](O)[C@]1(C)O")
"Condition not met"
>>> discrete_label("O=C(O)Cc1ccccc1Nc1c(Cl)cccc1Cl [DICLOFENAC]")
"Condition not met"
>>> discrete_label("C[C@H]1[C@H]2CC[C@H]3[C@@H]4CC=C5C[C@@H](N(C)C)CC[C@]5(C)[C@H]4CC[C@]23CN1C [CONESSINE]")
"Condition met"
>>> discrete_label("CN(C)CCCc1cc(C(=O)Nc2ccc(-c3ccncc3)cc2)ccc1O.Cl.Cl")
"Condition met"
>>> discrete_label("CN1CCN2c3ncccc3Cc3ccccc3C2C1 (stereo not drawn) [MIRTAZAPINE]")
"Condition not met"
>>> discrete_label("Cc1nc2ccc(Oc3ccc(F)cc3)cc2c(=O)n1C[C@H]1CCCN(C(C)C)C1.Cl")
"Condition not met"

// query Population Pyknosed Nuclei (%) under 7%? Item: C[C@H](NC(=O)c1c(C(F)F)nn(C)c1Oc1cccc(C(F)(F)F)c1)c1ccc(C(=O)O)cc1 [PALUPIPRANT]
// result Condition not met

----------
- System: U2OS
- METHOD: Multiplex assay against U2OS
- Format: toxicity, cell-based
- CONDITION_DETAILS: human, 48 h, 10 µM, compound concentration 10 uM, replicate 1
EXPERIMENTAL_ENDPOINT: Population Hoechst High Intensity Objects (%)
Numbers only, in %.

Worked cases, Population Hoechst High Intensity Objects (%) given:
>>> recorded_value("CNC[C@H](O)c1ccc(O)c(O)c1 [EPINEPHRINE]")
10
>>> recorded_value("CCNC1(C(N)=O)CCN(c2ncnc3c2nc(-c2ccccc2Cl)n3-c2ccc(Cl)cc2)CC1")
7
>>> recorded_value("CN1CCN2c3ncccc3Cc3ccccc3C2C1 (centres undefined)")
2

Please give Population Hoechst High Intensity Objects (%) for each item listed below.
1. CN1CCN(c2nc3cc(C(F)(F)F)ccc3n3cccc23)CC1.O=C(O)/C=C\C(=O)O.O=C(O)/C=C\C(=O)O
2. Cc1nc2ccc(Oc3ccc(F)cc3)cc2c(=O)n1C[C@H]1CCCN(C(C)C)C1.Cl
3. O=C(NCCO)c1cccc(-c2cc(Nc3ccc(OC(F)(F)F)cc3)ncn2)c1
4. c1cc(OCCCN2CCCCC2)ccc1CN1CCCCC1
5. CC1(COc2ccc3c(c2)ncn3-c2ccc3cccc(N4CCC(N)CC4)c3n2)COC1
6. C[C@@H]1C[C@H]2[C@@H]3CCC4=CC(=O)C=C[C@]4(C)[C@@]3(F)[C@@H](O)C[C@]2(C)[C@@]1(O)C(=O)CO

// result
1: 4; 2: 5; 3: 3; 4: 2; 5: 42; 6: 2

----------
Task for the reader: assign each of the following compounds its reported Population Mitotic Cells (%).
- System: HEK-293T
- METHOD: Multiplex assay against HEK293T
- Type: toxicity, cell-based
- CONDITION_DETAILS: human, 12 h, 10 µM, compound concentration 10 uM, replicate 2
Give bare numbers, in %.

>>> recorded_value("CC(=O)NCCc1c(Cc2ccccc2)[nH]c2ccccc12")
46
>>> recorded_value("O=C(O)Cc1ccccc1Nc1c(Cl)cccc1Cl")
42
>>> recorded_value("O=C1COc2nccc(-c3ccccc3F)c2CN1Cc1cc(C(F)(F)F)cc(C(F)(F)F)c1")
42
>>> recorded_value("CC(C)(C)c1ccc(S(=O)(=O)Nc2ccc(Cl)cc2C(=O)c2cc[n+]([O-])cc2)cc1")
60
>>> recorded_value("Cc1ccc(C(C)(O)c2nc3ccccc3s2)c(C)c1 (stereo unspecified)")
63
>>> recorded_value("CN(C)c1ccnc2sc3c(=O)n(N4CCCCCC4)cnc3c12")
40

Quick batch: Population Mitotic Cells (%) for everything below.
1. CCCC(CCC)C(=O)O
2. C[C@@H]1C[C@H]2[C@@H]3CCC4=CC(=O)C=C[C@]4(C)[C@@]3(F)[C@@H](O)C[C@]2(C)[C@@]1(O)C(=O)CO
3. CCCN1CCC[C@@H]2Cc3n[nH]cc3C[C@H]21.Cl [QUINPIROLE HYDROCHLORIDE]
4. CNC[C@H](O)c1ccc(O)c(O)c1 [EPINEPHRINE]
5. Cc1ccc(-c2ccc(F)cc2COc2ccc(CCC(=O)O)cc2)cc1
6. Cc1ccccc1C(=O)Nc1ccc(C(=O)N2CCCC(N(C)C)c3ccccc32)cc1.Cl (stereo unspecified)
7. N#Cc1c(N)nc(SCc2csc(-c3ccc(Cl)cc3)n2)c(C#N)c1-c1ccc(OCCO)cc1
8. O=S(=O)(c1ccccc1)c1cnc2c(N3CCNCC3)cccc2c1 [INTEPIRDINE]

// result
[55, 55, 53, 43, 57, 35, 29, 53]

For each of the compounds below, state Population Mitotic Cells (%).
1. CSCC[C@H](NC=O)C(=O)N[C@@H](CC(C)C)C(=O)N[C@@H](Cc1ccccc1)C(=O)O
2. Oc1c(CN2CCN(c3ccccn3)CC2)cc(Cl)c2cccnc12

// result
45
26

----------
- System: U2OS
- METHOD: Multiplex assay against U2OS
- Format: toxicity, cell-based
- CONDITION_DETAILS: human, 48 h, 10 µM, compound concentration 10 uM, replicate 1
EXPERIMENTAL_ENDPOINT: Population Tubulin-Different-Phenotype (%)

The examples below pair each entry with its known result.
>>> recorded_value("Cl.Clc1ccc2nsnc2c1NC1=NCCN1 [TIZANIDINE HYDROCHLORIDE]")
"3%"
>>> recorded_value("O=C(NCC(=O)N1CC[C@H](N[C@H]2CC[C@@](O)(c3ccc(-c4ncccn4)cn3)CC2)C1)c1cccc(C(F)(F)F)c1")
"4%"
>>> recorded_value("CN(C)c1ccnc2sc3c(=O)n(N4CCCCCC4)cnc3c12")
"7%"
>>> recorded_value("CC[C@H]1OC(=O)[C@H](C)[C@@H](O[C@H]2C[C@@](C)(OC)[C@@H](O)[C@H](C)O2)[C@H](C)[C@@H](O[C@@H]2O[C@H](C)C[C@H](N(C)C)[C@H]2O)[C@@]2(C)CC(C)=C(O2)[C@H](C)[C@@H](O)[C@]1(C)O")
"63%"
>>> recorded_value("COc1cc(NC(=O)CCN2CCC(OC(=O)Nc3ccccc3-c3ccccc3)CC2)c(Cl)cc1CNC[C@H](O)c1ccc(O)c2[nH]c(=O)ccc12")
"23%"

Here are 2 compounds. What values of Population Tubulin-Different-Phenotype (%) were reported for them?
1. CN(C)CCCc1cc(C(=O)Nc2ccc(-c3ccncc3)cc2)ccc1O.Cl.Cl
2. CCNC1(C(N)=O)CCN(c2ncnc3c2nc(-c2ccccc2Cl)n3-c2ccc(Cl)cc2)CC1

// result
1: 5%; 2: 51%
